- tgt: Cholinesterase (Homo sapiens)
- Sequence (P06276 whole entry): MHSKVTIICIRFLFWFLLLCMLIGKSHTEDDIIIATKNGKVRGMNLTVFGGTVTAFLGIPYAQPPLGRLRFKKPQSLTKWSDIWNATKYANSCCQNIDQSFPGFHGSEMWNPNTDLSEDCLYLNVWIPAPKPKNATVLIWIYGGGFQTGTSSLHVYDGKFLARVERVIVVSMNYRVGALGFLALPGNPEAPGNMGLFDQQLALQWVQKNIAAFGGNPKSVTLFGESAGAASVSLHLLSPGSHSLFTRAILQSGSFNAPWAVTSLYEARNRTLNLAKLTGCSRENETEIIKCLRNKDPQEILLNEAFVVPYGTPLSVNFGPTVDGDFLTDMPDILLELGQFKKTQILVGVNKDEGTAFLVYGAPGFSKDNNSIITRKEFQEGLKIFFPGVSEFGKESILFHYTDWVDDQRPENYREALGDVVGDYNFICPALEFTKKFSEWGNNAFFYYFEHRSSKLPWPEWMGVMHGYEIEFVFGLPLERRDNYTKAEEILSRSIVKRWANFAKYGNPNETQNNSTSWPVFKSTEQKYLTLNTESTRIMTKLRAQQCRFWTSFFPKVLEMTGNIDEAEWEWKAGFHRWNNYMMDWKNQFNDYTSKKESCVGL
- experimentNotes: Binding affinity to human BChE assessed as decarbamoylation rate constant at 25 degree C incubated for 1 hr by Ellman's method
assayEndpoint: K (h⁻¹)

{"structureSmilesString": "CN(CCC1CCCCCC1)Cc1c[nH]c2c(OC(=O)N(C)Cc3ccccc3)cccc12", "assayEndpoint": "K", "recordedResult": 0.007}
{"structureSmilesString": "C#CCN(CC#C)C(=O)Oc1cccc2c(CN(C)CCC3CCCCCC3)c[nH]c12", "assayEndpoint": "K", "recordedResult": 0.062}
{"structureSmilesString": "CCN(CC)C(=O)Oc1cccc2c(CN(C)CCC3CCCCCC3)c[nH]c12", "assayEndpoint": "K", "recordedResult": 0.002}
{"structureSmilesString": "C#CCCCN(C)C(=O)Oc1cccc2c(CN(C)CCC3CCCCCC3)c[nH]c12", "assayEndpoint": "K", "recordedResult": 0.015}
{"structureSmilesString": "CN(CCC1CCCCCC1)Cc1c[nH]c2c(OC(=O)N(C)C)cccc12", "assayEndpoint": "K", "recordedResult": 0.053}
{"structureSmilesString": "C#CCN(C)C(=O)Oc1cccc2c(CN(C)CCC3CCCCCC3)c[nH]c12", "assayEndpoint": "K", "recordedResult": 0.014}
